- Test system: MCF7
- Assay Text: Growth inhibition of human MCF7 cells after 48 hrs by sulforhodamine B assay
- Type: functional
- Experimental Setup: MCF7, 48 h
Form field: GI50 (one value per entry).

Study these solved cases before continuing.
Molecule	Readout Type	Reported Value
COc1c2c(cc3c(=O)c4cc(Cl)ccc4oc13)OC(C)(C)C=C2	GI50	> 150 µM
COc1c2c(cc3c(=O)c4cc(C)ccc4oc13)CCC(C)(C)O2	GI50	31.8 µM
COc1c2c(cc3c(=O)c4cc(Cl)ccc4oc13)OC(C)(C)CC2	GI50	> 75 µM
COc1c2c(cc3c(=O)c4ccc(O)cc4oc13)CCC(C)(C)O2	GI50	> 150 µM
COc1cc2oc3c(OC)c4c(cc3c(=O)c2cc1OC)OC(C)(C)CC4	GI50	> 75 µM
CC1(C)CCc2cc3c(=O)c4cc(Cl)ccc4oc3c(O)c2O1	GI50	> 150 µM
COc1c2c(cc3c(=O)c4ccc(O)cc4oc13)OC(C)(C)C=C2	GI50	36.9 µM
COc1cccc2c1C(=O)c1c(O)c3c(c(O)c1C2=O)C[C@@](O)(C(=O)CO)C[C@@H]3O[C@H]1C[C@H](N)[C@H](O)[C@H](C)O1 [DOXORUBICIN]	GI50	0.0654 µM
CC1(C)CCc2cc3c(=O)c4ccccc4oc3c(O)c2O1	GI50	39.7 µM
Cc1ccc2oc3c(O)c4c(cc3c(=O)c2c1)CCC(C)(C)O4	GI50	> 150 µM

Looking for the measured GI50 of COc1cc2oc3c(OC)c4c(cc3c(=O)c2cc1OC)CCC(C)(C)O4 , can you help?
> 100 µM

Thanks! And CCN(CC)c1ccc2c(=O)c3cc4c(c(OC)c3oc2c1)C=CC(C)(C)O4 ?
34.3 µM

Thanks! And COc1c2c(cc3c(=O)c4ccccc4oc13)CCC(C)(C)O2 ?
> 150 µM

###

- Assay Text: Thermodynamic solubility of the compound after 24 hrs at pH 7.4 by spectrophotometric analysis
- Type: physicochemical
- Experimental Setup: buffer, read-out: Therm_solubility
Readout Type: solubility thermodynamic at 24 h (µM)
Your answer should be a plain number; it is taken to be in µM.

Study these solved cases before continuing.
Molecule Smiles	Reported Value
CC1(C)CCc2cc3c(=O)c4ccc(O)cc4oc3c(O)c2O1	0.62
CC1(C)CCc2cc3c(=O)c4ccccc4oc3c(O)c2O1	0.4

Moving on to the next molecule.
Looking for the measured solubility thermodynamic at 24 h of COc1cccc2c(=O)c3cc4c(c(O)c3oc12)OC(C)(C)CC4 , can you help?
0.23

###

Form field: GI50 (one value per entry).
- Assay Text: Growth inhibition of human A375-C5 cells after 48 hrs by sulforhodamine B assay
- Assay type: functional
- Experimental Setup: A375-C5, 48 h
Your answer should be a plain number; it is taken to be in µM.

Molecule Smiles	Unit Descriptor	Reported Value
Cc1ccc2oc3c(O)c4c(cc3c(=O)c2c1)CCC(C)(C)O4	µM	17.6
CCN(CC)c1ccc2c(=O)c3cc4c(c(OC)c3oc2c1)C=CC(C)(C)O4	µM	21.9
COc1cccc2c(=O)c3cc4c(c(O)c3oc12)OC(C)(C)CC4	µM	68

Looking for the measured GI50 of CC1(C)CCc2cc3c(=O)c4ccc(O)cc4oc3c(O)c2O1 , can you help?
40.7
